Cited source: PubChem BioAssay (NCI)

// values below are reported GI50
tested on: SK-MEL-28 melanoma; assay: NCI tumour cell line growth inhibition, 48 h

In the examples that follow, each entry is paired with its recorded GI50.
Compound: COc1ccc(C2CC(c3cc(Cl)c(C)cc3O)=NN2c2ccc(S(N)(=O)=O)cc2)cc1OC (stereo not given)
Assayed Target: SK-MEL-28 melanoma
GI50: 4.29 µM
//
Compound: Nc1cc2c([nH]c[n+]2CC#CCCl)c(SCC#CCCl)n1
Assayed Target: SK-MEL-28 melanoma
GI50: 1.34 µM
//
Compound: Cn1ncc2c(Sc3ccc(Cl)cc3)ncnc21
Assayed Target: SK-MEL-28 melanoma
GI50: > 100 µM
//
Compound: C=Cc1ccccc1 (tested in a mixture with another compound)
Assayed Target: SK-MEL-28 melanoma
GI50: > 75 µg/mL
//
Compound: COc1cc(-c2nc3ccccc3s2)ccc1OCCCCCOc1cc2c(cc1OC)C(=O)N1CCC[C@H]1C=N2
Assayed Target: SK-MEL-28 melanoma
GI50: 0.255 µM

# GI50 measured on SK-MEL-28 melanoma for item COC1=CC(c2ccc[nH]2)=N/C1=C\c1[nH]c(C)c(C(=O)CCCCC(=O)NCc2ccccc2)c1C = 2.07 µM

# GI50 measured on SK-MEL-28 melanoma for item Cc1cc2c([nH]1)CSc1cc(S(=O)(=O)c3ccccc3)c(=O)[nH]c1-2 = 4.67 µM

Value (GI50, SK-MEL-28 melanoma) for record NS(=O)(=O)N(c1cc(C(F)(F)F)cc(C(F)(F)F)c1)C1CCN(Cc2ccc(F)cc2)CC1 = 11.6 µM

Record CC(=O)c1nc2ccccc2n1CCN1CCN(C)CC1 / SK-MEL-28 melanoma, GI50 recorded as 7.15 µM

Lab note: compound NCCOc1ncccc1/C=C1\c2ccccc2-c2ccc(F)cc21 tested on SK-MEL-28 melanoma; recorded GI50 was 1.62 µM

The reported GI50 value, SK-MEL-28 melanoma, for [O-]c1ccccc1/C=N/c1nccs1.[O-]c1ccccc1/C=N/c1nccs1.[O]=[U+2]=[O] reads > 100 µM

Considering c1ccc(-c2c(-c3ccccc3)[n+](Cc3ccc4ccccc4c3)c(-c3cccc4ccccc34)n2Cc2ccc3ccccc3c2)cc1 , its GI50 with SK-MEL-28 melanoma was recorded as 0.191 µM

GI50 on SK-MEL-28 melanoma for CCCC(c1nnnn1C1CCCCC1)N1CCN(C(=O)c2ccco2)CC1 (stereo not given) is > 100 µM

Lab note: compound COc1ccc(Nc2nccc(Nc3ccc4[nH]ncc4c3)n2)cc1 tested on SK-MEL-28 melanoma; recorded GI50 was 3.64 µM

Hey, SK-MEL-28 melanoma data for C=C1C(=O)O[C@H]2[C@H]1CC/C(COC(=O)CCCCCCC(=O)OC/C1=C/CC[C@@]3(C)O[C@H]3[C@H]3OC(=O)C(=C)[C@@H]3CC1)=C\CC[C@@]1(C)O[C@@H]21 : GI50 came out at 2.95 µM

* * *

test system: MALME-3M melanoma; test: NCI tumour cell line growth inhibition, 48 h
Measured log10 TGI of individual entries
Units before log transform: µM; reported quantity: TGI; transform: log10.

# count of solved cases: 5
Molecule: C=C1C(=O)O[C@H]2[C@H]1CC/C(COC(=O)CCCCCCC(=O)OC/C1=C/CC[C@@]3(C)O[C@H]3[C@H]3OC(=O)C(=C)[C@@H]3CC1)=C\CC[C@@]1(C)O[C@@H]21
Endpoint Name: log10 TGI
Endpoint Result: 0.85
--
Molecule: CN(C)CCn1nc2c3c(c(C(=O)NCCCN(C)CCCNC(=O)c4ccc5c6c(nn5CCN(C)C)-c5ccccc5Nc46)ccc31)Nc1ccccc1-2
Endpoint Name: log10 TGI
Endpoint Result: -0.55
--
Molecule: NCCOc1ncccc1/C=C1\c2ccccc2-c2ccc(F)cc21
Endpoint Name: log10 TGI
Endpoint Result: 0.42
--
Molecule: COc1ccc2nc(NNC(=O)c3cnccn3)c3cccn3c2c1
Endpoint Name: log10 TGI
Endpoint Result: 1.19
--
Molecule: NC(N)=N/N=C(/CC1OC(=O)c2ccccc21)c1ccc2ccccc2c1 (stereo unspecified)
Endpoint Name: log10 TGI
Endpoint Result: 1.48

Simply: COc1ccc(C2CC(c3cc(Cl)c(C)cc3O)=NN2c2ccc(S(N)(=O)=O)cc2)cc1OC (stereo unspecified) , MALME-3M melanoma, log10 TGI = 1.39

# log10 TGI measured on MALME-3M melanoma for item COC(OC)(c1ccccc1)C(Br)Br = 1.64

The molecule COC1=CC(c2ccc[nH]2)=N/C1=C\c1[nH]c(C)c(C(=O)CCCCC(=O)NCc2ccccc2)c1C , tested on MALME-3M melanoma, showed log10 TGI of 0.75

Entry COc1ccc(Nc2nccc(Nc3ccc4[nH]ncc4c3)n2)cc1 under MALME-3M melanoma had log10 TGI of 1.20

* * *

system: SK-MEL-5 melanoma; assay: NCI tumour cell line growth inhibition, 48 h; in the data active means GI50 below about 0.43 µM; inactive means the rest
Assign a class; possible classes are active, inactive

The following molecules have reported results that may help.
Chem Smiles: FC(F)(F)c1ccc(-c2cnc(Cl)nc2NC2CCCCCC2)cc1
Category: inactive
--
Chem Smiles: COc1ccc(/C=C/c2nnc(/C=C/c3ccc(OC)c(OC)c3)o2)cc1OC
Category: inactive
--
Chem Smiles: CCCCCCCCc1cc[n+](CC(=O)c2ccc(Br)cc2)cc1
Category: inactive
--
Chem Smiles: COc1cc(-c2n[nH]nc2-c2ccc3c(c2)OCCO3)cc(OC)c1OC
Category: active
--
Chem Smiles: CCN(Cc1ccncc1)c1ccc(CO)c(Cl)c1
Category: inactive
--
Chem Smiles: COCC(=O)Oc1cc(-c2ccc(C)cc2C)c(OC(=O)COC)c(-c2ccc(C)cc2C)c1
Category: inactive
--
Chem Smiles: COc1cc(-c2nc3ccccc3s2)ccc1OCCCCCOc1cc2c(cc1OC)C(=O)N1CCC[C@H]1C=N2
Category: active
--
Chem Smiles: C=C1C(=O)O[C@H]2[C@H]1CC/C(COC(=O)CCCCCCC(=O)OC/C1=C/CC[C@@]3(C)O[C@H]3[C@H]3OC(=O)C(=C)[C@@H]3CC1)=C\CC[C@@]1(C)O[C@@H]21
Category: inactive

Could you now consider this next molecule?
Task: So what was the verdict on Cc1cc(C)c(-c2cc(O)c(-c3c(C)cc(C)cc3C)cc2O)c(C)c1 in this test?
Output: inactive

* * *

Parameter TGI: see the listing below.
tested on: SF-268 CNS; test: NCI tumour cell line growth inhibition, 48 h

Molecule: CC(C)CC(C(N)=O)C(=O)NC(Cc1ccccc1)NC(=O)CNC(=O)C(C)NC(=O)C(N)Cc1ccc(O)cc1 (centres undefined)
Endpoint Name: TGI
Endpoint Result: > 100 µM

Molecule: ClCCC[Si]12OCCN(CCO1)CCO2
Endpoint Name: TGI
Endpoint Result: > 100 µM

Molecule: O=[N+]([O-])O
Endpoint Name: TGI
Endpoint Result: > 100 µM

Short answer on SF-268 CNS for CCCC[C@@H](C)/C=C1\CN2CCC[C@H]2[C@@](C)(O)[C@@H]1O , TGI: > 100 µM

Tested on SF-268 CNS, the item COC(=O)C(C(=O)C(=O)Nc1nc2ccc([N+](=O)[O-])cc2s1)c1nc2ccc(Cl)cc2[nH]c1=O (centres undefined) showed TGI equal to > 100 µM

The molecule CC1CSC(=S)N1C(=O)N1C(=S)SCC1C (centres undefined) , when measured on SF-268 CNS, yielded TGI of 74.6 µM

Let me check: N#CCN1c2ccccc2CCC1Cl (centres undefined) , system SF-268 CNS, measured TGI is > 10 µM

TGI for SF-268 CNS with input N=c1oc2c(O)c(O)ccc2cc1C(N)=O equals > 100 µM

Record CC(=O)c1sc2c(c1OC(=O)c1ccc(Cl)cc1Cl)c(=O)n(-c1ccccc1)c(=S)n2-c1ccccc1 has SF-268 CNS TGI equal to 13.7 µM

So the reported TGI for O=C(O)CNC(=O)C(CSC(=O)OCC1c2ccccc2-c2ccccc21)NC(=O)CCC(NC(=O)OCC1c2ccccc2-c2ccccc21)C(=O)O (centres undefined) , on SF-268 CNS, turned out to be 33.1 µM

Noted TGI for c1ccc(-c2cc(-c3cccs3)c(-c3cccs3)s2)cc1 , tested on SF-268 CNS: > 100 µM

Form: item O=[N+]([O-])c1cccnc1NCC1(CO)CCCC1 ; test system SF-268 CNS; TGI: 70.7 µM

Bench note, SF-268 CNS: entry C=CCCC1CCCNC1=S (centres undefined) , its TGI = > 100 µM

Response field TGI (SF-268 CNS) for item Cn1ncc2c(Sc3ccc(Cl)cc3)ncnc21 : > 100 µM

* * *

Reported TGI by item:
tested on: SN12C renal; test: NCI tumour cell line growth inhibition, 48 h

Use the examples below as a reference point.
Molecule: Oc1ccc(-c2nn3c(CCCCCCCCc4nnc5sc(-c6ccc(O)cc6)nn45)nnc3s2)cc1
Assayed Target: SN12C renal
Endpoint Name: TGI
Endpoint Result: > 100 µM
--
Molecule: Cc1cc(OCC(O)CO)ccc1-c1ccccc1 (stereo unspecified)
Assayed Target: SN12C renal
Endpoint Name: TGI
Endpoint Result: > 100 µM
--
Molecule: C[C@H]1COC(c2ccccn2)=N1
Assayed Target: SN12C renal
Endpoint Name: TGI
Endpoint Result: > 100 µM
--
Molecule: NC1(C(=O)O)CCCC1C(=O)O (stereo unspecified)
Assayed Target: SN12C renal
Endpoint Name: TGI
Endpoint Result: > 100 µM

Kindly note the recorded TGI for CC(C)(/C=N\O)NO , which is > 10 µM

Documented TGI of COC(=O)C(C(=O)C(=O)Nc1nc2ccc([N+](=O)[O-])cc2s1)c1nc2ccc(Cl)cc2[nH]c1=O (stereo unspecified) : > 100 µM

Briefly, TGI measured for COc1cc2c(c(OC)c1OC)-c1cccc(=O)cc1C(NC(C)=O)CC2 (stereo unspecified) : > 100 µM

Noted for COc1ccc(NC(=S)N/N=C/c2cccc(C)n2)cc1 : its TGI reads > 100 µM

For reference, reported TGI for COC(=O)CCCC(=O)NC1=C(Nc2ccc(OC)cc2)C(=O)c2ccccc2C1=O stands at 74.2 µM

response.value for CCCC(c1nnnn1C1CCCCC1)N1CCN(C(=O)c2ccco2)CC1 (stereo unspecified) (field: TGI) = > 100 µM

The molecule identified as O=C1/C(=C/c2ccc(Cl)cc2)COc2ccc(O)cc21 registered its TGI at 4.22 µM
